# maps each entry to its CC50 at 3 days
# assay.overview: Cytotoxicity (CC50) in the cell-based assay
# experimental.parameters: hamster, BHK-21 cells
endpoint.name: CC50 at 3 days (µM)

- C[C@@H](Sc1nnc2c3ccccc3nc(-c3ccccc3)n12)C(=O)NC[C@H]1CCCO1 [Compound D17]: 53
- Cc1[nH]c2ccccc2c1C(=O)C(=O)NC[C@@H]1COc2ccccc2O1 [Compound D11]: 87.3
- O=C1C[C@@H](NCCc2c[nH]c3ccccc23)C(=O)N1c1ccc(Oc2ccccc2)cc1 [Compound D12]: 163

###

Listed compounds paired with reported CC50 at 3 days
# assay.overview: Cytotoxicity (CC50) in the cell-based assay
# experimental.parameters: hamster, BHK-21 cells
endpoint.name: CC50 at 3 days (µM)

* Nc1ncnc2c([C@@H]3N[C@H](CO)[C@@H](O)[C@H]3O)c[nH]c12 [BCX4430, Galidesivir, reference compound] | 100
* CN(Cc1ccccc1)C(=O)c1snc2c(=O)n(Cc3ccccc3)c(=O)[nH]c12 [Compound D1] | 37.5
* O=C(Nc1ccc(F)cc1F)N1CCC[C@@H]1c1nc2cc(-c3ccccc3F)ccc2o1 | 99.2
* COc1cccc(S(=O)(=O)NC(=O)c2cc(-c3ccc(C#CCO)s3)c(OC)cc2OC)c1 [Compound 27, reference compound] | 26.9

###

# assay.overview: Cytotoxicity (CC50) in the cell-based assay
# experimental.parameters: hamster, BHK-21 cells
endpoint.name: CC50 at 3 days

• N#Cc1ccc(C(=O)N2CCC[C@H]2c2nc(CCOCC3CC3)no2)cc1 = > 200 µM
• NC(=O)COc1ccc([C@@H]2CC(=O)Nc3nc(SCc4ccc(Cl)cc4)[nH]c(=O)c32)cc1 = > 200 µM
• O=C(Cn1c(=O)sc2ccccc21)Nc1nnc(SCc2ccccc2)s1 = > 200 µM
• O=C([C@@H]1C[C@H](Oc2ccccc2)CN1C(=O)CCc1nc2ccccc2s1)N1CCCC1 = > 200 µM
